Hello, the source for this data is patent EP4763837A1, in case you need it.

Assay: Solubility of photochromic compound in polymerizable compounds
Type: physicochemical
Design: key: 1: No haze is seen when checked under transmission of light, and the sample is completely dissolved.; 2: A very thin haze is seen to the extent that it can be seen under transmission of light.; 3: A thin haze that can be seen under transmission of light is seen.; 4: A haze can be seen even without transmission of light
Conditions: 35 µmol/g in radical polymerizable compound composition of Example 21, 65 to 70°C; head reads 60 min in Tables 8 to 14
For each record, write down the corresponding Dissolution for 1 hour.
Kindly provide the number alone.

*Q* Determine from records and report Dissolution for 1 hour for COc1ccc(C2(c3ccc(N4CCOCC4)cc3)C=Cc3c4c(c5cc(Sc6c(C)cccc6C)c(OC)cc5c3O2)-c2ccc(OC)cc2C4(C)C)cc1 (centres unmarked) [Formula (K), reference compound]
*A* 3

*Q* Determine from records and report Dissolution for 1 hour for COc1ccc(C2(c3ccc(N4CCOCC4)cc3)C=Cc3c4c(c5ccc(OC)cc5c3O2)-c2ccc(OC)cc2C42CC(C)(C)CC(C)(C)C2)cc1 (centres unmarked) [Formula (E), reference compound]
*A* 2

*Q* Determine from records and report Dissolution for 1 hour for CCC1(OCCOCCO[Si](C)(C)CC[Si](O[Si](C)(C)C)(O[Si](C)(C)C)O[Si](C)(C)C)c2ccccc2-c2c1c1c(c3cc(OC)c(N4CCOCC4)cc23)OC(c2ccc(OC)cc2)(c2ccc(OC)cc2)C=C1 (centres unmarked) [Formula (C), reference compound]
*A* 1

*Q* Determine from records and report Dissolution for 1 hour for CCCOc1ccc(C2(c3ccc(OC)cc3)C=Cc3c4c(c5cc(OC)c(OC)cc5c3O2)-c2ccc(N(C)c3ccccc3)cc2C4(C)C)cc1 (centres unmarked) [Formula (I), reference compound]
*A* 3

*Q* Determine from records and report Dissolution for 1 hour for CCC1(CC)CCC2(CC1)c1cc(OC)ccc1-c1c2c2c(c3cc(OC)c(Sc4c(C)cccc4C)cc13)OC(c1ccc(OC)cc1)(c1ccc(N3CCOCC3)cc1)C=C2 (centres unmarked) [Formula (J), reference compound]
*A* 2

* * *

For each record, write down the corresponding Color fading half-life at 23°C.
Assay: Photochromic property of photochromic laminate made by coating method
Type: physicochemical
// unit must come after the numeric part

*Q* Determine from records and report Color fading half-life at 23°C for CCCOc1ccc(C2(c3ccc(OC)cc3)C=Cc3c4c(c5cc(C)c(OC)cc5c3O2)-c2ccc(N3CCOc5ccccc53)cc2C4(C)CC)cc1 (centres unmarked) [Formula (75-2)]
*A* 2.33 min

*Q* Determine from records and report Color fading half-life at 23°C for CCCC1(CC)c2ccccc2-c2c1c1c(c3cc(OC)c(Sc4c(C)cccc4C)cc23)OC(c2ccc(OC)cc2)(c2ccc(N3CCOCC3)cc2)C=C1 (centres unmarked) [Formula (4-5)]
*A* 0.717 min

*Q* Determine from records and report Color fading half-life at 23°C for CCCCC1(CC)c2ccccc2-c2c1c1c(c3cc(OC)c(C)cc23)OC(c2ccc(OC)cc2)(c2ccc(OCCC)cc2)C=C1 (centres unmarked) [Formula (2-2)]
*A* 1.65 min

*Q* Determine from records and report Color fading half-life at 23°C for COc1ccc(C2(c3ccc(OC)cc3)C=Cc3c4c(c5cc(N6CCOCC6)c(OC)cc5c3O2)-c2ccccc2C42CCCCCCC2)cc1 [Formula (D), reference compound]
*A* 3.13 min

*Q* Determine from records and report Color fading half-life at 23°C for CCCCC1(CC)c2ccccc2-c2c1c1c(c3cc(OC)c(N(C)c4ccccc4)cc23)OC(c2ccc(OC)cc2)(c2ccc(OC)cc2)C=C1 (centres unmarked) [Formula (80-2)]
*A* 1.17 min

*Q* Determine from records and report Color fading half-life at 23°C for CCCC1(CC)c2cc(OC)ccc2-c2c1c1c(c3cc(OC)ccc23)OC(c2ccc(OC)cc2)(c2ccc(N3CCOCC3)cc2)C=C1 (centres unmarked) [Formula (91-1)]
*A* 1.25 min

*Q* Determine from records and report Color fading half-life at 23°C for CCCC1(CC)c2cc(C)ccc2-c2c1c1c(c3cc(OC)c(-c4ccc(N5CCOCC5)cc4)cc23)OC(c2ccc(OC)cc2)(c2ccc(N3CCOCC3)cc2)C=C1 (centres unmarked) [Formula (79-2)]
*A* 1.3 min

*Q* Determine from records and report Color fading half-life at 23°C for CCCCCC1(CCC)c2cc(N(c3ccccc3)c3ccccc3)ccc2-c2c1c1c(c3cc(OC)ccc23)OC(c2ccc(OC)cc2)(c2ccc(OC)cc2)C=C1 (centres unmarked) [Formula (8-3)]
*A* 1.67 min

*Q* Determine from records and report Color fading half-life at 23°C for CCCC1(CC)c2ccccc2-c2c1c1c(c3cc(OC)c(N(C)c4ccccc4)cc23)OC(c2ccc(OC)cc2)(c2ccc(N(c3ccccc3)c3ccccc3)cc2)C=C1 (centres unmarked) [Formula (83-2)]
*A* 1.53 min

*Q* Determine from records and report Color fading half-life at 23°C for CCCCC1(CC)c2ccccc2-c2c1c1c(c3cc(OC)c(-c4ccc(N(c5ccccc5)c5ccccc5)cc4)cc23)OC(c2ccc(N(C)c3ccccc3)cc2)(c2ccc(OCCC)c(F)c2)C=C1 (centres unmarked) [Formula (76-6)]
*A* 1.17 min

*Q* Determine from records and report Color fading half-life at 23°C for CCCC1(CC)c2ccccc2-c2c1c1c(c3cc(OC)c(N4CCOCC4)cc23)OC(c2ccc(OC)cc2)(c2ccc(OC)cc2)C=C1 (centres unmarked) [Formula (14-1)]
*A* 1.83 min
